- Target system: Axl (Homo sapiens)
- Construct: endogenous in cells; host or cells: HeLa cells
- Run description: Phospho-Akt in-cell Western assay (inhibition of Axl activity)
- Format: cell-based
- Experimental parameters: inhibition of Axl activity, Table 1
As shown below, each of these compounds has a reported IC50 value.

Worked cases, answers included:
* CC(C)Oc1ccc(Nc2nc(N)n(C(=O)c3ccc(OC(C)C)cc3)n2)cc1 | 1 to 10 µM
* Cc1ccccc1C(=O)n1nc(Nc2cccc(O)c2)nc1N | > 20 µM

Query Cc1ccc(C(=O)n2nc(Nc3cccc(O)c3)nc2N)cc1 yields IC50 of 10 to 20 µM

Query Nc1nc(Nc2ccc3c(c2)OCCO3)nn1C(=O)c1ccc(C(F)(F)F)cc1 yields IC50 of > 20 µM

Query Cc1cccc(C(=O)n2nc(Nc3cccc(OCC(=O)NCCN4CCOCC4)c3)nc2N)c1 yields IC50 of 1 to 10 µM

Query CC(=O)Nc1ccc(C(=O)n2nc(Nc3ccc4c(c3)OCCO4)nc2N)cc1 yields IC50 of 1 to 10 µM

Query COc1ccc(C(=O)n2nc(Nc3ccc4c(c3)OCCO4)nc2N)cc1 yields IC50 of 1 to 10 µM

Query COc1cccc(C(=O)n2nc(Nc3ccc4c(c3)OCCO4)nc2N)c1 yields IC50 of 1 to 10 µM

Query CC(C)Oc1ccc(Nc2nc(N)n(C(=O)c3ccc(OCCN4CCCCC4)cc3)n2)cc1 yields IC50 of 1 to 10 µM

Query CC(C)Oc1ccc(C(=O)n2nc(Nc3ccc4c(c3)OCCO4)nc2N)cc1 yields IC50 of 1 to 10 µM

Query CCOc1cccc(Nc2nc(N)n(C(=O)c3ccc(OC(C)C)cc3)n2)c1 yields IC50 of 1 to 10 µM

* * *

- Target system: Axl (Homo sapiens, UniProt P30530)
- Construct: endogenous in cells; host or cells: HeLa cells
- Run description: Phospho-Akt in-cell Western assay (inhibition of Axl activity)
- Type: cell-based
- Experimental parameters: inhibition of Axl activity, Table 1
Measured property: IC50

* Nc1nc(Nc2ccc3c(c2)OCCO3)nn1C(=O)c1cccc(OCc2ccccc2)c1 [compound 156] | 10 to 20 µM
* Cc1cccc(C(=O)n2nc(Nc3cccc(OCC(=O)N4CCNCC4)c3)nc2N)c1 [(Ia-20)] | 1 to 10 µM
* COc1ccccc1Nc1nc(N)n(C(=O)c2ccc(C)cc2)n1 [compound 143] | > 20 µM
* Nc1nc(Nc2ccc3c(c2)OCCO3)nn1C(=O)c1cccc(O)c1 [compound 166] | 1 to 10 µM
* Cc1cccc(C(=O)n2nc(Nc3ccc(OCCN4CCCCC4)cc3)nc2N)c1 [compound 59] | < 1 µM

Query Cc1ccc(Nc2nc(N)n(C(=O)c3ccc(C)cc3)n2)cc1 [compound 131] yields IC50 of > 20 µM

Query Cc1ccc(C(=O)n2nc(Nc3ccc(O)cc3)nc2N)cc1 [(Ia-4)] yields IC50 of > 20 µM

Query Nc1nc(Nc2ccc(N3CCOCC3)cc2)nn1C(=O)c1cccc(Cl)c1 [compound 74] yields IC50 of 1 to 10 µM

Query CC(C)c1ccc(C(=O)n2nc(Nc3ccc(N4CCOCC4)cc3)nc2N)cc1 [compound 52] yields IC50 of < 1 µM

Query Nc1nc(Nc2ccc3c(c2)OCCO3)nn1C(=O)c1cccc(OCCC2OCCO2)c1 [compound 210] yields IC50 of 1 to 10 µM

Query CC(=O)Oc1ccccc1C(=O)n1nc(Nc2ccc3c(c2)OCCO3)nc1N [compound 119] yields IC50 of 1 to 10 µM

Query Cc1cc(C(=O)n2nc(Nc3ccc4c(c3)OCCO4)nc2N)ccc1OC(C)C [compound 258] yields IC50 of 1 to 10 µM

Query CC(C)Oc1ccc(C(=O)n2nc(Nc3ccc(OCC(F)(F)F)cc3)nc2N)cc1 [compound 152] yields IC50 of > 20 µM

Query Cc1cc(C(=O)n2nc(Nc3ccc4c(c3)OCCO4)nc2N)ccc1F [compound 242] yields IC50 of > 20 µM

* * *

- Target system: Axl (Homo sapiens)
- Construct: endogenous in cells; host or cells: HeLa cells
- Sequence (P30530 26-894): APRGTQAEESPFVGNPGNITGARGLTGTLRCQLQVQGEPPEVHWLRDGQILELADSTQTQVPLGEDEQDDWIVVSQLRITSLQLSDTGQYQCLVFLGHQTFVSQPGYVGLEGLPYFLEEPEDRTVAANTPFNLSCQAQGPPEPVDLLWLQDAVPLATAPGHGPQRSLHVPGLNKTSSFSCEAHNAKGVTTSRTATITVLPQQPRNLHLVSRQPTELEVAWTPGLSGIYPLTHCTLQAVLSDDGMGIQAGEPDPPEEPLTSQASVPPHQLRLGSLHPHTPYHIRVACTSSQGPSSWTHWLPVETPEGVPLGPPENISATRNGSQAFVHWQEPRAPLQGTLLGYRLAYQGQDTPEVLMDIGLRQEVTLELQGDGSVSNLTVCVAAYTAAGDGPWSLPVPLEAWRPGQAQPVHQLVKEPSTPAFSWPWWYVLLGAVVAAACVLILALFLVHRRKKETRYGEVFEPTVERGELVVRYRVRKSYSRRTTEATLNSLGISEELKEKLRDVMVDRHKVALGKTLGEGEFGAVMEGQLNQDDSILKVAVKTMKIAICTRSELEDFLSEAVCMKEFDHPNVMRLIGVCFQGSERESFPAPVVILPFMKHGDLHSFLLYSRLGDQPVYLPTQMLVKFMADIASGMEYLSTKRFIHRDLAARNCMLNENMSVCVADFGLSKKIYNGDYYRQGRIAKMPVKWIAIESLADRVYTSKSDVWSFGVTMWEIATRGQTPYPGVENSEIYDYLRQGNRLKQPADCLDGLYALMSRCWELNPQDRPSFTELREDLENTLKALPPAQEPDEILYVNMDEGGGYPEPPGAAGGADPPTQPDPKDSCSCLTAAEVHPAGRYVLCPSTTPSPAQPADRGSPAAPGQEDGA
- Run description: Phospho-Akt in-cell Western assay (inhibition of Axl activity)
- Assay type: cell-based
- Experimental parameters: Table 5; Hela cells, Axl antibody cross-linking stimulation, phospho-Akt chemiluminescence
pIC50: −log10 of the molar value.
Measured property: pIC50

pIC50 on Axl (Homo sapiens) for Cc1cccc(C(=O)n2nc(Nc3ccc4occc4c3)nc2N)c1 [compound 229] is 5.00 to 6.00

* * *

- Target system: Axl (Homo sapiens, UniProt P30530)
- Construct: endogenous in cells; host or cells: HeLa cells
- Run description: Phospho-Akt in-cell Western assay (inhibition of Axl activity)
- Format: cell-based
- Experimental parameters: Table 7; Hela cells, Axl antibody cross-linking stimulation, phospho-Akt chemiluminescence
- Procedure: The compounds of the invention were tested in the following assay for their ability to inhibit Axl activity. Phospho-Akt in-Cell Western Assay […]
Measured property: IC50

• Cc1ccc(NC(=O)n2nc(Nc3ccc(OCCN4CCCCC4)cc3)nc2N)cc1C = 1000 to 10000 nM
• CC(C)(C)OC(=O)n1nc(Nc2ccc(N3CCCCC3)cc2)nc1N = > 20000 nM
• COc1cccc(NC(=O)n2nc(Nc3ccc(OCCN4CCCCC4)cc3)nc2N)c1 = < 1000 nM
• Nc1nc(Nc2ccc(OCCN3CCCCC3)cc2)nn1C(=O)NC1CCCC1 = 1000 to 10000 nM
• COc1ccc(NC(=O)n2nc(Nc3ccc(OCCN4CCCCC4)cc3)nc2N)cc1OC = 1000 to 10000 nM
• COc1cc(NC(=O)n2nc(Nc3ccc(OCCN4CCCCC4)cc3)nc2N)cc(OC)c1 = < 1000 nM

# next molecule below
Query CCCCOc1ccc(NC(=O)n2nc(Nc3ccc(N(C)C(C)=O)cc3)nc2N)cc1 yields IC50 of 1000 to 10000 nM

* * *

- Target system: Axl (Homo sapiens)
- Construct: endogenous in cells; host or cells: HeLa cells
- Run description: Phospho-Akt in-cell Western assay (inhibition of Axl activity)
- Assay type: cell-based
- Experimental parameters: inhibition of Axl activity, Table 1
pIC50: −log10 of the molar value.
Measured property: pIC50

Worked cases, answers included:
- Nc1nc(Nc2ccc3c(c2)OCCO3)nn1C(=O)c1ccccc1Cl: < 4.70
- Nc1nc(Nc2ccc3c(c2)OCCO3)nn1C(=O)c1ccc(OCCC2OCCO2)cc1: 5.00 to 6.00

pIC50 on Axl (Homo sapiens) for CC(C)Oc1ccc(C(=O)n2nc(Nc3ccc(OCCN4CCCCC4)cc3)nc2N)cc1 is > 6.00

pIC50 on Axl (Homo sapiens) for CC(C)Oc1cccc(C(=O)n2nc(Nc3ccc4c(c3)OCCO4)nc2N)c1 is 5.00 to 6.00

pIC50 on Axl (Homo sapiens) for Cc1ccccc1C(=O)n1nc(Nc2ccc3c(c2)OCCO3)nc1N is 4.70 to 5.00

pIC50 on Axl (Homo sapiens) for COc1cccc(C(=O)n2nc(Nc3ccc(N4CCOCC4)cc3)nc2N)c1 is 5.00 to 6.00

pIC50 on Axl (Homo sapiens) for Cc1cccc(C(=O)n2nc(Nc3cccc(OCCN4CCOCC4)c3)nc2N)c1 is 5.00 to 6.00
